IC50 for Histone-lysine N-methyltransferase SUV39H2 (Homo sapiens, UniProt Q9H5I1) - collated from the literature.

As a guide, the following entries are already answered.
Prompt: What value of IC50 has been recorded for this entry: CCCc1cc(C)[nH]c(=O)c1CNC(=O)c1cc(-c2ccc(N3CCN(C)CC3)nc2)cc2c1cnn2C(C)C
Response: > 100 µM

Prompt: Next entry: COc1cc2c(NC3CCN(C4CCCCC4)CC3)nc(N3CCCN(C(C)C)CC3)nc2cc1OCCCN1CCCCC1
Response: > 10 µM

Prompt: # iterate: Nc1ncnc2c1ncn2[C@@H]1O[C@H](CSCC[C@H](N)C(=O)O)[C@@H](O)[C@H]1O
Response: 32 µM

Prompt: // repeat for Cc1cc(C)c(CNC(=O)c2cc(-c3ccc(N4CCN(C)CC4)nc3)cc3c2cnn3C(C)C)c(=O)[nH]1 and report
Response: > 100 µM

---
Prompt: Report IC50 for COc1cc2nc(N3CCCC3)nc(NCCCCCN3CCCC3)c2cc1OC please.
Response: > 100 µM

Prompt: Now consider CCCc1cc(C)[nH]c(=O)c1CNC(=O)c1cc(-c2ccnc(N3CCN(C)CC3)c2)cc2c1cnn2C(C)C and answer again.
Response: 123 µM
